experiment: refractive index (Na D-line) (dimensionless); xn = mol fraction of the nth substance listed; conditions: 288.15 K; 100.5 kPa; Liquid; Standard Abbe refractometry; x1 = 0.55
Listed here are compounds together with their documented refractive index.
Please give only the number in your answer, with no unit.

Examples with their reported refractive index follow.
// lookup refractive index for CC(=O)OCCC(C)C [3-methylbutyl ethanoate] + CCO
1.39319

Next up: CCOC(=O)Cc1ccccc1 [ethyl phenylacetate] + CCO
1.46909

Let us now turn to CCCC(=O)OCCC(C)C [3-methylbutyl butanoate] + CCO
1.4024

Input CCOC(=O)c1ccccc1 [ethyl benzoate] + CCO
1.47305

More entries:
// lookup refractive index for CCCCCCCC(=O)OCC [ethyl octanoate] + CCO
1.40882

Entry to check: CCCCCC(=O)OCC [ethyl hexanoate] + CCO
1.3991
